Test system: OVCAR-4 ovarian
Assay: NCI tumour cell line growth inhibition, 48 h
Parameter TGI: see the listing below.

{"columns": ["Compound", "Test target", "TGI"],
 "data": [
  ["NC(N)=NCCCC(N=c1c2ccccc2n(O)c2ccccc12)C(=O)O (stereo unspecified)", "OVCAR-4 ovarian", "> 100 µM"]
]}

Qu. // returns reported TGI for input CN(C)c1nc(N(C)C)nc(N(C)C)n1
Ans. > 143 µM

Qu. // returns reported TGI for input O=C1NC(=O)C(C(=O)C(=O)Nc2ccc(Br)cc2)C(=O)N1
Ans. > 100 µM

###

Tested on: SNB-78 CNS
Assay: NCI tumour cell line growth inhibition, 48 h
Where a SMILES comes first, the peptide text is derived from it.
Attribute measured: TGI

Below, 5 compounds whose answers are already recorded.
{"columns": ["Compound", "TGI"],
 "data": [
  ["O=C(O)c1ccc(S(=O)(=O)c2ccccc2)c([N+](=O)[O-])c1", "> 100 µM"],
  ["C/C(CN1C(=O)c2ccccc2C1=O)=N\\NS(=O)(=O)c1cccc([N+](=O)[O-])c1", "> 100 µM"],
  ["Cc1ccc(NC(=O)c2[nH]c(=S)nc(N)c2-c2ccccc2C)cc1C", "> 100 µM"],
  ["Cc1cc2c(c3c1c1ccccc1n3C)C(=O)C=CC2=O", "98.7 µM"],
  ["CC1NC(=O)CNC(=O)CNC(=O)C(Cc2ccc(O)cc2)NC(=O)C(C(C)C)NC(=O)C(C)NC1=O (stereo not given) (cyclo(GGAAVY); configuration not given here)", "> 100 µM"]
]}

Qu. // returns reported TGI for input CC1=C2C(O)C(C(C)C(=O)NCC(C)C)CCC2(C)C=CC1=O (stereo not given)
Ans. > 100 µM

Qu. // returns reported TGI for input CC(Cn1c2c3ccccc3ccc2c2oc(=O)c3ccccc3c21)N(C)C (stereo not given)
Ans. > 100 µM

Qu. // returns reported TGI for input CCCN1C(=O)C/C(=C\C(C)=O)Nc2ccccc21
Ans. > 100 µM

Qu. // returns reported TGI for input O=C(O)c1ccc(NC(=O)C2C(=O)C(=O)N(c3ccc(C(=O)O)cc3)C2=O)cc1 (stereo not given)
Ans. > 100 µM

Qu. // returns reported TGI for input C/C(=N\NC(=S)N1CCCCCC1)c1nccnc1C
Ans. > 100 µM

###

Parameter TGI: see the listing below.
Tested on: CCRF-CEM leukemia
Experiment: NCI tumour cell line growth inhibition, 48 h

Below, 5 compounds whose answers are already recorded.
{"columns": ["Compound", "Test target", "Readout value"],
 "data": [
  ["CCNC(=O)C[C@@H]1N=C(c2ccc(Cl)cc2)c2cc(OC)ccc2-n2c(C)nnc21", "CCRF-CEM leukemia", "> 100 µM"],
  ["CN1CCCN2CCN(C)CCN(CC1)CC2", "CCRF-CEM leukemia", "> 100 µM"],
  ["CC(=O)/C(C=Nc1c(C)n(C)n(-c2ccccc2)c1=O)=C(/C)O", "CCRF-CEM leukemia", "> 100 µM"],
  ["CC(C(=O)N1C(=O)N(C(=O)C(C)C(O)c2ccccc2)C(c2ccccc2)C1c1ccccc1)C(O)c1ccccc1 (stereo unspecified)", "CCRF-CEM leukemia", "32.2 µM"],
  ["COc1cccc(N2C(=O)c3c(c4[nH]c5ccccc5c4c4ccc(C(C)(C)C)cc34)C2=O)c1", "CCRF-CEM leukemia", "> 100 µM"]
]}

Qu. // returns reported TGI for input c1ccc(N=C2c3ccccc3CN2c2ccccc2)cc1
Ans. > 100 µM

Qu. // returns reported TGI for input CCCCCCCCCOC(=O)c1cnc(Cl)cn1
Ans. > 100 µM

Qu. // returns reported TGI for input COc1ccc(C(=O)Cn2c(C(=O)c3ccc(Cl)cc3)nc3ccccc32)cc1
Ans. > 100 µM

Qu. // returns reported TGI for input C/C(=N/NC(=S)Nc1ccccc1Cl)c1ccccn1
Ans. 1.1 µM

Qu. // returns reported TGI for input CS(=O)(=O)c1ccc(Oc2cc(F)cc(C#N)c2)c2c1[C@H](O)[C@H](F)[C@@H]2F
Ans. > 100 µM

Qu. // returns reported TGI for input CN(C)CCCNc1c(O)c2c(c(O)c1Cl)C(=O)C=CC2=O
Ans. 5.7 µM

This collection of values is drawn from PubChem BioAssay (NCI).
